# METHOD NOTES: Compound was evaluated for its bioavailability in mice at a dose of 1 mg/kg
# Format: ADME, organism-based
# MEASUREMENT CONDITIONS: mouse, in vivo
ASSAY ENDPOINT: bioavailability (%)
Write the number in % without appending the unit.

Q: Fill in the blank: the reported bioavailability of `COCc1nc2c(OC)ccc(C(=O)Nc3c(Cl)c[n+]([O-])cc3Cl)c2[nH]1` is ____.
Result: 87

====

List of bioavailability values.
# METHOD NOTES: Bioavailability in mouse
# Format: ADME, organism-based
# MEASUREMENT CONDITIONS: in vivo
Please respond with the number in % and leave the unit unwritten.

* COCc1nc2c(OC)ccc(C(=O)Nc3c(Cl)cncc3Cl)c2[nH]1 | 35

Now look at this one.
Q: What value of bioavailability has been recorded for this entry: `COc1ccc(C(=O)Nc2c(Cl)cncc2Cl)c2[nH]c(C(C)C)nc12`
Result: 16

====

# TESTED ON: Phosphodiesterase 4 (Cavia porcellus)
# METHOD NOTES: Inhibition of PDE4 from guinea pig macrophages
ASSAY ENDPOINT: IC50 (nM)
Give the quantity in nM, number only.

* COc1ccc(C(=O)Nc2c(Cl)cncc2Cl)c2[nH]c(CCc3ccccc3)nc12 | 23

Now let's try a different one.
Q: Hi! What's the reported IC50 for `COc1ccc(C(=O)Nc2c(Cl)cncc2Cl)c2[nH]c(C3CC3)nc12` on Phosphodiesterase 4 (Cavia porcellus)?
Result: 2

====

# TESTED ON: Phosphodiesterase 4 (Cavia porcellus)
# METHOD NOTES: Inhibition of PDE4 from guinea pig macrophages
ASSAY ENDPOINT: log10(IC50) (log10 of the value in nM)
Note: values are log10 of IC50 expressed in nM.

- COc1ccc(C(=O)Nc2c(Cl)cncc2Cl)c2[nH]c(C)nc12: 2.65
- COc1ccc(C(=O)Nc2c(Cl)cncc2Cl)c2c1nc(C1CCCC1)n2C: 2.73
- COc1ccc(C(=O)Nc2c(Cl)cncc2Cl)c2[nH]c(C3CCCC3)nc12: 2.00
- COc1ccc(C(=O)Nc2c(Cl)cncc2Cl)c2[nH]c(C(C)C)nc12: 1.43
- COc1ccc(C(=O)Nc2c(Cl)cncc2Cl)c2nc(C3CCCC3)n(C)c12: 3.64

--- query ---
Q: Reported log10(IC50), compound `COc1ccc(C(=O)Nc2c(Cl)cncc2Cl)c2[nH]c(Cc3ccccc3)nc12` : ____
Result: 1.40
